Catalogue of Percent Effect readings, one per entry.
# target.entity: AMP-activated protein kinase, AMPK (Homo sapiens) (UniProt P54646+O43741+P54619+Q9UGJ0+Q9Y478+Q13131+Q9UGI9)
# assay.info: AMP-dependent Kinase enzyme assay. An in vitro enzyme assay that detects ADP turnover that is directly proportional to AMPK activity. This uses naive AMPK that is activated during the assay with MK-8722
# Assay type: functional
# Set-up: scale not given: direction of the effect not stated beside the values
# protocol.conditions: 30 µM
Note: unit % is implicit; provide only the numeric part.

Record excerpt, results attached:
{"columns": ["compound", "value.units", "Percent Effect"],
 "data": [
  ["O=C(C1CCC1)N1CCN(c2snc3ccccc23)CC1", "%", 21],
  ["CC(=O)Nc1cccc(C(=O)Nc2cnc3n2CCCC3)c1", "%", -0.344],
  ["CCS(=O)(=O)N1C[C@H]2CN(Cc3cccnc3)C(=O)[C@H]2C1", "%", 0.503]
]}

Task item: Item under review: `CNC(=O)c1ccc(OC2CCN(S(C)(=O)=O)CC2)c(Cl)c1` . Reported Percent Effect?
Reply: -2.06

Task item: Would you kindly repeat that for CCCOc1ccc(CNC(=O)N2CCC(C(N)=O)C2)cc1 (stereo unspecified) ?
Reply: -8.41

Task item: Cool, now COCC(O)CNC(=O)c1coc(COc2ccc3sc(C)nc3c2)n1 (stereo unspecified)
Reply: 3.03

Task item: And for CCc1csc(CCNC(=O)C2CC(=O)N(C(C)C)C2)n1 (stereo unspecified) ?
Reply: -6.03

Task item: Try CN(C)S(=O)(=O)N1CCCC1CC(=O)c1cccs1 (stereo unspecified) next.
Reply: -3.98

Task item: And CC(C)C(Sc1nnnn1C1CC1)C(=O)NCc1cccnc1 (stereo unspecified) ?
Reply: 3.52

Task item: And for CCN(CC(=O)NC(C)C)S(=O)(=O)N1CCC(C)C1 (stereo unspecified) ?
Reply: -2.33

Task item: // next record `O=C(c1cscn1)N1C[C@@H]2C[C@@H](c3nnc(C4CC4)o3)O[C@@H]2C1`
Reply: 2.51

Task item: Another compound to check: Cc1nn(C)c(N(C)C)c1CNCC(O)c1ccccc1 (stereo unspecified)
Reply: -3.51

====

Each entry below carries its reported Percent Effect.
# target.entity: Tyrosyl-tRNA synthetase, putative (Trypanosoma cruzi (strain CL Brener))
# assay.info: Trypanosoma cruzi tyrosyl tRNA synthetase (TcYRS) SOP
# Assay type: functional
# Design: scale not given: direction of the effect not stated beside the values
# protocol.conditions: 30 µM

Study these solved cases before continuing.
{"columns": ["compound", "Percent Effect"],
 "data": [
  ["CCOc1nnc(CNC2CCCN(c3ccc(C)nn3)C2)s1 (centres undefined)", "23.5%"],
  ["CC(C)c1nc(C2CCCN2CC(=O)N2CCNC2=O)no1 (centres undefined)", "4.88%"],
  ["CCCN1CCN(C(=O)C(C)n2cc(Br)cn2)CC1 (centres undefined)", "21%"]
]}

Here is the next item to consider.
Task item: Reported Percent Effect for `Cc1ccc(=O)n(CC2(O)CCN(Cc3cc(C)c(O)c(C)c3)CC2)n1` : what is it?
Reply: 14.3%

====

Measured Percent Effect by item
# Test system: Trypanosoma cruzi
# assay.info: Trypanosoma cruzi phosphomannomutase and mannose-1-phosphate guanylyltransferase assay
# Format: functional
# Set-up: scale not given: direction of the effect not stated beside the values
# protocol.conditions: 10 µM

Task item: Which Percent Effect is listed for COCC1Cn2nnc(-c3cnn(C)c3)c2CN1Cc1ccc(C)s1 (configuration not stated) ?
Reply: 1.37%

Task item: Record: `O=C(c1ccc(F)cc1)N1C[C@H]2CCC[C@@]2(COCc2ccccn2)C1`
Reply: 2.44%

Task item: Then this compound: COc1ccccc1OCCN1CCCC(c2noc(C3CC3)n2)C1 (configuration not stated)
Reply: -2.24%

Task item: Another: `Cc1nc(-c2ccccc2)n(CC(=O)N(C(C)C)C(C)C)n1`
Reply: 3.68%

Task item: What about this compound? `c1ccc(CCCN2CC(n3cccn3)C2)cc1`
Reply: 5.48%

Task item: Subsequent entry: `CC(C)Nc1nc2c(cc1C(=O)NCC1CC1)CCNCC2`
Reply: -2.9%

Task item: Entry CC(=O)N(C)c1nc(CN2CCOC(Cn3cccn3)C2)cs1 (configuration not stated) please
Reply: 3.09%

Task item: `CC(=O)N1CCC(C(=O)N(C)[C@@H]2CCC[C@@H](N3CCCC3)[C@@H]2O)CC1` ?
Reply: 6.13%

Task item: Queued: `CCNC(=O)[C@@H]1C[C@H](NC(=O)c2ccccc2C#N)CN1CCCSC`
Reply: 0.794%

Task item: Please give the result for CC(NCc1ccc(Cl)o1)c1nnc2n1CCCC2 (configuration not stated) too.
Reply: 0.195%

Task item: Please answer likewise for `N#CC1(C(=O)N2CCN(Cc3ccon3)CC2)CCC1`
Reply: -7.84%

Task item: Thanks! And O=C(NCc1cc(=O)n2c(n1)CN(CC1CCOC1)CCC2)C1CC1 (configuration not stated) ?
Reply: 6.35%

Task item: Same read-out for Cc1cnn(CC2CCCCN2CCC(=O)Nc2cc(C)on2)c1 (configuration not stated) ?
Reply: 0.308%

Task item: Entry to check: c1ncn(CC2CCCCN2Cc2noc(C3CC3)n2)n1 (configuration not stated)
Reply: -1.69%

Task item: Then this compound: `Cc1ccc(NS(=O)(=O)c2cc3c(c(C(=O)O)c2)OCCO3)c(F)c1`
Reply: 10.6%

Task item: What do you get for COCCN1CCC(CN(CC2CCCO2)C(=O)COC)CC1 (configuration not stated) ?
Reply: 7.09%

Task item: Query O=C(C1CCCc2[nH]ncc21)N1CCCC1 (configuration not stated) next
Reply: -0.0978%

Task item: Param item: CCOc1cccc(CNC(=O)NCC(O)c2cccc(F)c2)c1 (configuration not stated)
Reply: 5.75%

Data credit: ChEMBL document CHEMBL3988442
